# ASSAYED SYSTEM: T1, BMP-12 (UniProt Q7Z4P5 322-450, limits assumed)
# T1 construct: also called BMP12/GDF7
# T1 sequence (looked up): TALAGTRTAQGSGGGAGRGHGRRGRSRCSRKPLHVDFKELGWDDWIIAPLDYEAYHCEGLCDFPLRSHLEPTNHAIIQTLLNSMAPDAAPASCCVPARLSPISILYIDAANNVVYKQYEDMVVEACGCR
# EXPERIMENT: peptide resin, filter plate; load 4: 25 mM MES pH 6.0
# Experimental: The coupled resins, plus an unconjugated resin for use as a control, were suspended in 16% ethanol, 150 mM NaCl, and 20 mM Tris buffer at pH 7.5 at a 25% v/v ratio (e.g., 25% ethanol, 75% Tris buffer). […] The protein concentration in the filtrate, or flow-through, was calculated as $(A280-A320)/1.3$. […] The protein concentration was measured in the new filtrate as described above. […]
No end group written: not given here.
MEASURE: 4M Gnd, 50 mM NaAc pH 4 Strip Conc (mg/ml)

BINDER	U	RECORDED RESULT
Ac-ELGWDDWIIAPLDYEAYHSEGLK [BMP12 N-trun_1S peptide 749]	mg/ml	0.079
Ac-LYVSDVGWNDWIVK (not fully specified (residue 3); printed as Ac-LYV**SDVGWNDWIVK; also: ** after V3 not explained) [BMP2 C-trunc_2 peptide 746]	mg/ml	0.07
Ac-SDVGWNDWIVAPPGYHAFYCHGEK [BMP2 N-trun peptide 750]	mg/ml	0.06

The measured values listed here are drawn from patent US7754689B2.
